Data credit: PubChem BioAssay AID2305

Quick reference: pIC50 of the listed items.
- Tested on: P. falciparum 3D7 growth, pLDH absorbance
- ASSAY_TEXT: blood-stage malaria parasite growth potency – strain 3D7, dose response (AID 2305)
// pIC50 here means minus log10 of the molar concentration (mol/L)

Cc1cc(N(C)C)nc(Nc2ccc(NC(=O)c3cccc(F)c3)cc2)n1 | 6.00

Input: Reported pIC50 for `Cc1ccc(-c2cc(C(=O)Nc3ccc(S(=O)(=O)N(C)Cc4ccccc4)cc3)[nH]n2)c(O)c1` : what is it?
Output: 6.07

Input: Reported pIC50 for `CCOc1c(CNCCCNc2nc3ccccc3[nH]2)cc(I)cc1OC` : what is it?
Output: 6.18

Input: Reported pIC50 for `Oc1cccc2ccc(Nc3ccccn3)nc12` : what is it?
Output: 6.12

Input: Reported pIC50 for `Nc1cc(-c2cc3c(OCc4ccccc4)cccc3[nH]2)ccn1` : what is it?
Output: 5.92

Input: Reported pIC50 for `CC(C)Cn1cc2c(ccc3nc(N)nc(N)c32)n1` : what is it?
Output: 6.52

Input: Reported pIC50 for `Nc1nonc1-c1nc2c(-c3cccc(Cl)c3)nccc2n1CCCNC(=O)Cc1ccc(Cl)cc1` : what is it?
Output: 6.57

Input: Reported pIC50 for `O=C(Nc1ccc2c(c1)CCN(C1CCC1)CC2)c1cn(-c2ccccc2)nc1-c1ccccc1` : what is it?
Output: 6.09

Input: Reported pIC50 for `COc1ccc(NC(=O)Nc2ccc(C)c(-c3ccc(C(=O)Nc4ccncc4)cc3)c2)cc1` : what is it?
Output: 6.24

Input: Reported pIC50 for `CCOC(=O)[C@H](Cc1cc([N+](=O)[O-])c(Oc2ccc(OC)c(Cc3ccc(OC)c(C(C)C)c3)c2)c([N+](=O)[O-])c1)NC(=O)C(F)(F)F` : what is it?
Output: 6.01

Input: Reported pIC50 for `COc1ccc2nccc([C@@H](O)CN3CCC(NCCNc4ccccn4)CC3)c2c1` : what is it?
Output: 6.13

Input: Reported pIC50 for `CCN1CCN(c2cc(C)c3cc(NC(=O)c4cccc(Cl)c4)ccc3n2)CC1` : what is it?
Output: 6.11

Input: Reported pIC50 for `N#Cc1cccc(C(=O)Nc2cccc(-c3ccc(C(=O)NCCCN4CCOCC4)cc3)c2)c1` : what is it?
Output: 6.12

Input: Reported pIC50 for `CC(=O)c1ccc(-c2cccc3c(CC(=O)Nc4ccc5nccc(N6CCN(C)CC6)c5c4)cccc23)cc1` : what is it?
Output: 6.30

Input: Reported pIC50 for `Cc1ccc(CN2CCN(Cc3cccc(NC(=O)c4ccc5ccccc5c4)c3)CC2)cc1C` : what is it?
Output: 5.91

Input: Reported pIC50 for `COc1ccc2ncc(F)c(CCN3C[C@H](CNCc4ccc5oc(=O)ccc5c4)[C@H](O)C3)c2n1` : what is it?
Output: 6.02

Input: Reported pIC50 for `O=C(NC1CCN(Cc2cccc(C(F)(F)F)c2)CC1)c1ccc(-c2cccc(C(F)(F)F)c2)s1` : what is it?
Output: 6.00

Input: Reported pIC50 for `Fc1cc(Cl)ccc1Nc1ccnc2cc(-c3ccc(CNCCN4CCOCC4)o3)ccc12` : what is it?
Output: 6.55

Input: Reported pIC50 for `O=C(/C=C/c1ccc(Cl)cc1)NCCCCCN1CCN(C(=O)C=Cc2ccc(Cl)c(Cl)c2)CC1` : what is it?
Output: 6.00
